From: paper PMC10143822

# study_system: ExoI (Escherichia coli)
# Construct: His-tag (cleaved yes); host or cells: E. coli BL21 (DE3) pLysS
# Sequence (P04995 whole entry): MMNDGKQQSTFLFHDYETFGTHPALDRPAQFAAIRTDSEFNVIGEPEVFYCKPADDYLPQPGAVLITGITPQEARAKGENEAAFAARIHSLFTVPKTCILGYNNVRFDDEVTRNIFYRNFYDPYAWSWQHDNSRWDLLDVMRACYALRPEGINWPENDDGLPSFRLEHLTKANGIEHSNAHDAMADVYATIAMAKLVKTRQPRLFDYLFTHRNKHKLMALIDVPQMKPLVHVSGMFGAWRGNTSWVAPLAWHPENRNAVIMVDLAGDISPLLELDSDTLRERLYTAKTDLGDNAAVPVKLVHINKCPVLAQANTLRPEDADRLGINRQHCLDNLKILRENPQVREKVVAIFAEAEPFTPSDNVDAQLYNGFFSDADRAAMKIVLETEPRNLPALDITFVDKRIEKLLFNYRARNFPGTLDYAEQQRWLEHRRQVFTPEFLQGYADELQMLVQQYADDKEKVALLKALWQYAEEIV
# method_description: biochemical
# Format: binding, E. coli
Where a SMILES comes first, the peptide text is derived from it. [ ]: non-standard residue; d: D form. 3Pal = N[C@@H](Cc1cccnc1)C(=O)O; NMeD = CN[C@@H](CC(=O)O)C(=O)O; β3hD = NC(CC(=O)O)CC(=O)O

compound | IC50 / µM
CC[C@H](C)[C@H](NC(=O)C[C@H](CC(=O)O)NC(=O)[C@H](CC(=O)O)NC(=O)[C@H](CC(=O)O)NC(=O)[C@H](Cc1ccccc1)NC(=O)[C@H](CC(=O)O)NC(C)=O)C(=O)N1CCC[C@H]1C(=O)N[C@@H](Cc1ccccc1)C(=O)O [β3-Asp5] (Ac-DFDD[β3hD]IPF-OH) | 13.9
CC[C@H](C)[C@H](NC(=O)[C@H](CC(=O)O)NC(=O)[C@H](CC(=O)O)N(C)C(=O)[C@H](CC(=O)O)NC(=O)[C@H](Cc1ccccc1)NC(=O)[C@H](CC(=O)O)NC(C)=O)C(=O)N1CCC[C@H]1C(=O)N[C@@H](Cc1ccccc1)C(=O)O [NM-Asp4] (Ac-DFD[NMeD]DIPF-OH) | 1.27
CC[C@H](C)[C@H](NC(=O)[C@H](CC(=O)O)NC(=O)[C@H](CC(=O)O)NC(=O)[C@@H](CC(=O)O)NC(=O)[C@H](Cc1ccccc1)NC(=O)[C@H](CC(=O)O)NC(C)=O)C(=O)N1CCC[C@H]1C(=O)N[C@@H](Cc1ccccc1)C(=O)O [D-Asp3] (Ac-DF[dD]DDIPF-OH) | 6.82
CC[C@H](C)[C@H](NC(=O)[C@H](CC(=O)O)NC(=O)[C@H](CC(=O)O)NC(=O)[C@H](CC(=O)O)NC(=O)[C@H](Cc1ccccc1)NC(=O)[C@H](CC(=O)O)NC(C)=O)C(=O)N1CCC[C@H]1C(=O)N[C@@H](Cc1cccnc1)C(=O)O [3Pal8] (Ac-DFDDDIP[3Pal]-OH) | 19.9
